Details: in ethanol, 288.15 K
Result type: solubility (mole fraction)
Give the value as a plain number.

Which solubility (mole fraction) is listed for CC(C)(Oc1ccc(CCNC(=O)c2ccc(Cl)cc2)cc1)C(=O)O ? 0.00271

----------
Conditions: in methanol, 308.15 K
Result type: solubility (mole fraction)
Quick one: just the number, no unit, thanks!

Entry under review: CC(C)(Oc1ccc(CCNC(=O)c2ccc(Cl)cc2)cc1)C(=O)O . Reported solubility (mole fraction)? 0.00526

----------
Conditions: in water, 293.15 K
Result type: solubility (mole fraction)

Fill in the blank: the reported solubility (mole fraction) of CC(C)(Oc1ccc(CCNC(=O)c2ccc(Cl)cc2)cc1)C(=O)O is ____. 2.01e-06

----------
Conditions: in ethanol, 298.15 K
Result type: solubility (mole fraction)
Would you mind answering with just the numeric figure?

Would you mind telling me what solubility (mole fraction) value was observed for CC(C)(Oc1ccc(CCNC(=O)c2ccc(Cl)cc2)cc1)C(=O)O ? 0.00402

----------
Conditions: in isopropanol, 308.15 K
Result type: solubility (mole fraction)
No unit in the answer, only the number.

For CC(C)(Oc1ccc(CCNC(=O)c2ccc(Cl)cc2)cc1)C(=O)O , what is its reported solubility (mole fraction)? 0.00476

----------
Settings: in water, 298.15 K
Result type: solubility (mole fraction)
Just the number, please, no unit attached.

# input molecule: CC(C)(Oc1ccc(CCNC(=O)c2ccc(Cl)cc2)cc1)C(=O)O ; wanted: its solubility (mole fraction) 2.56e-06

----------
Conditions: in isopropanol, 293.15 K
Result type: solubility (mole fraction)
Number only, please.

Suppose we examine the compound CC(C)(Oc1ccc(CCNC(=O)c2ccc(Cl)cc2)cc1)C(=O)O ; what solubility (mole fraction) value has been reported? 0.00237

----------
Conditions: in isopropanol, 313.15 K
Result type: solubility (mole fraction)

May I ask what solubility (mole fraction) has been recorded for CC(C)(Oc1ccc(CCNC(=O)c2ccc(Cl)cc2)cc1)C(=O)O ? 0.00563

----------
Details: in ethanol, 323.15 K
Result type: solubility (mole fraction)
Lab note: jot the number down without any unit.

Endpoint output: solubility (mole fraction) of CC(C)(Oc1ccc(CCNC(=O)c2ccc(Cl)cc2)cc1)C(=O)O . Value? 0.00977

----------
Settings: in water, 303.15 K
Result type: solubility (mole fraction)
Reply with just the number.

Entry under review: CC(C)(Oc1ccc(CCNC(=O)c2ccc(Cl)cc2)cc1)C(=O)O . Reported solubility (mole fraction)? 3.29e-06

----------
Conditions: in ethanol, 313.15 K
Result type: solubility (mole fraction)

Look at this molecule and give its reported solubility (mole fraction). CC(C)(Oc1ccc(CCNC(=O)c2ccc(Cl)cc2)cc1)C(=O)O 0.00689

----------
Details: in n-propanol, 293.15 K
Result type: solubility (mole fraction)
// no unit string in output, number only

Request the reported solubility (mole fraction) associated with CC(C)(Oc1ccc(CCNC(=O)c2ccc(Cl)cc2)cc1)C(=O)O 0.00361

----------
Conditions: in water, 313.15 K
Result type: solubility (mole fraction)

Quick check: solubility (mole fraction) of CC(C)(Oc1ccc(CCNC(=O)c2ccc(Cl)cc2)cc1)C(=O)O ? 5.13e-06

----------
Conditions: in n-propanol, 308.15 K
Result type: solubility (mole fraction)

# get_value(readout='solubility (mole fraction)', item= CC(C)(Oc1ccc(CCNC(=O)c2ccc(Cl)cc2)cc1)C(=O)O ) 0.00631
